Target: human CD3 (huCD3ed) (human) (UniProt P07766)
Sequence (P07766 23-126, chain 1 of 2): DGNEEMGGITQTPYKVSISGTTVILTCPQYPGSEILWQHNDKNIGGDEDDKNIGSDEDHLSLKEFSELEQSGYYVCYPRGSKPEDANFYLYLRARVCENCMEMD
Sequence (P04234 22-105, chain 2 of 2, further chain): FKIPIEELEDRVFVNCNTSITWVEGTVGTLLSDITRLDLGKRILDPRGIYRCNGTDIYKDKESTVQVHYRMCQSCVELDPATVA
Assay: Biacore SPR, bispecific hIgG2dA format, 37 C; CD3 antigen not given

>  <BINDER>
h2B4-TK_Ep (bispecific antibody, part only; not given: anti-EpCam arm, constant regions, V domains shown, not shown: another chain or arm of the molecule; a dimerising Fc or GST; small tags and cut ends) VH: EVQLVESGGGLVQPGGSLRLSCAASGFTFSDYYMTWVRQAPGKGLEWVAFIRNRARGYTSDHNASVKGRFTISRDNAKNSLYLQMNSLRAEDTAVYYCARDRPSYYVLDYWGQGTTVTVSS VL: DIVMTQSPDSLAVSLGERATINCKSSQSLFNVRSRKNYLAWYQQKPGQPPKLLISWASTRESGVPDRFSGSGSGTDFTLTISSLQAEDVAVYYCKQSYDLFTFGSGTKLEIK

>  <MEASUREMENT_UNITS>
s⁻¹

>  <koff>
0.0213

$$$$
>  <BINDER>
h25A8-B13_Ep (bispecific antibody, part only; not given: anti-EpCam arm, constant regions, V domains shown, not shown: another chain or arm of the molecule; a dimerising Fc or GST; small tags and cut ends) VH: EVQLVESGGGLVKPGGSLRLSCAASGFTFSTYAMNWVRQAPGKGLEWVGRIRSKINNYATYYAESVKGRFTISRDDSKNTLYLQMNSLKTEDTAVYYCVRHETLRSGISWFASWGQGTLVTVSS VL: QAVVTQEPSLTVSPGGTVTLTCRTSTGAVTTSNYANWVQQKPGQAPRGLIGGTNTRAPGTPARFSGSLLGGKAALTLSGAQPEDEAEYYCVLWYNNHWVFGGGTKLTVL

>  <MEASUREMENT_UNITS>
s⁻¹

>  <koff>
0.0219

$$$$
>  <BINDER>
h2B4-yaesTK_Ep (bispecific antibody, part only; not given: anti-EpCam arm, constant regions, V domains shown, not shown: another chain or arm of the molecule; a dimerising Fc or GST; small tags and cut ends) VH: EVQLVESGGGLVQPGGSLRLSCAASGFTFSDYYMTWVRQAPGKGLEWVAFIRNRARGYTSDYAESVKGRFTISRDNAKNSLYLQMNSLRAEDTAVYYCARDRPSYYVLDYWGQGTTVTVSS VL: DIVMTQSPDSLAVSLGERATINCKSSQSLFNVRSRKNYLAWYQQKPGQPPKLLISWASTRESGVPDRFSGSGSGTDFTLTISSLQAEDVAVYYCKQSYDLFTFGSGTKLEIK

>  <MEASUREMENT_UNITS>
s⁻¹

>  <koff>
0.0258

$$$$
